Task for the reader: assign each of the following sequences its reported Percent Inhibition of TNF-α secretion.
test system: TNF-α secretion from RAW264.7 cells; assay: Inhibition of CpG-ODN-induced TNF-α secretion from RAW264.7 cells (ELISA); assay type: cell-based, murine; settings: peptide 37 μM; RAW264.7; 1 μg/ml CpG-ODN; 4 hours
Answers are plain numbers, in %.

Solved entries (count: 5):
EMFTILEEYFMYRGLLGLRRRRRRRRR (C-terminal nona-arginine (R9)) [77(S13)-R^9]
93
EMFTILEEYFMYRGRRRRRRRRR (C-terminal nona-arginine (R9)) [81(S16)-R^9]
90
EMFTILEEYFMYRGLLGLRRRRRRRRRR (C-terminal nona-arginine (R9)) [76(S12)-R^9]
87
EMFTILEEYFMYRGLLGLRIKRRRRRRRRR (C-terminal nona-arginine (R9)) [74(S10)-R^9]
100
EMFTILEEYFMYRGLLGLRIKYGRLFRRRRRRRRR (C-terminal nona-arginine (R9)) [69(S5)-R^9]
100

Count: 6. Required value per item: Percent Inhibition of TNF-α secretion.
1. EMFTILEEYFMYRGLLGLRIKYGRRRRRRRRRR (C-terminal nona-arginine (R9)) [71(S7)-R^9]
2. EMFTILEEYFMYRGLLGLRIKYGRLFNEIRRRRRRRRR (C-terminal nona-arginine (R9)) [42(S1)-R^9]
3. EMFTILEEYFMYRGLLGLRIKYGRLRRRRRRRRR (C-terminal nona-arginine (R9)) [70(S6)-R^9]
4. EMFTILEEYFMYRRRRRRRRR (C-terminal nona-arginine (R9)) [83(S17)-R^9]
5. FTILEEYFMYRGLLGLRIKYGRLFNEIRRRRRRRRR (C-terminal nona-arginine (R9)) [44(S3)-R^9]
6. EMFTILEEYFMYRGLLGLRIKYGRRRRRRRRR (C-terminal nona-arginine (R9)) [72(S8)-R^9]

Result string:
[91, 97, 100, 89, 95, 100]

Count: 6. Required value per item: Percent Inhibition of TNF-α secretion.
1. EMFTILEEYFMYRGLLGLRIRRRRRRRRR (C-terminal nona-arginine (R9)) [75(S11)-R^9]
2. EMFTILEEYFMYRGLLGLRIKYRRRRRRRRR (C-terminal nona-arginine (R9)) [73(S9)-R^9]
3. EMFTILEEYFMYRGLLGLRIKYGRLFNRRRRRRRRR (C-terminal nona-arginine (R9)) [68(S4)-R^9]
4. EMFTILEEYFMYRGLRRRRRRRRR (C-terminal nona-arginine (R9)) [80(S15)-R^9]
5. EMFTILEEYFMYRGLLRRRRRRRRR (C-terminal nona-arginine (R9)) [79(S14)-R^9]
6. MFTILEEYFMYRGLLGLRIKYGRLFNEIRRRRRRRRR (C-terminal nona-arginine (R9)) [43(S2)-R^9]

Result string:
98
100
100
91
97
100
